Entries and their measured EC50 follow.
# Study system: SARS-CoV-2 spike receptor binding domain (RBD), wild type (SARS-CoV-2, UniProt P0DTC2 319-539)
# Assay summary: ELISA, RBD protein coated, mAb titrated
Field format: number, assumed ng/mL, no unit text.

- Binder: "C524 (antibody, V domains shown) VH: EVQLVESGGDLIQPGGSLRLSCAASGFSVSNSYMSWVRQAPGKGLEWVSIIYSGGSTYYADSVKGRFTISRDNSKNTLYLQMNSLRAEDTAVYFCAKTPRGDYDSSGTSAYWGQGTLVTVSS VL: QLVLTQSPSASASLGASVNLTCTLSSGHSSYAIAWHQQQPEKGPRFLMKLSSDGSHNKGDGIPDRFSGSSSGAERFLTISSLQSEDEADYYCQTWGIGSDWVFGGGTKLTVL"
  Reported value: 5

Q: Report EC50 for C537 (antibody, V domains shown) VH: QLQLQESGPGLVKPSETLSLTCTVSGGAISSRNYHWGWIRQPPGKGLEWIGSIYYSGSTYYSPSLKSRVTISVDTSKNQFSLRLSSVTAADTAVYYCARLETSGWYTEDVFDIWGQGTMVTVSS VL: DIQMTQSPSSLSASVGDRVTITCRASQSISSYLNWYQQKPGKAPKLLIYAASSLQSGVPSRFSGSGSGTDFTLTISSLLPEDFATYYCQRSYSAMYTFGQGTKLEIK please.
A: 41.9

Q: Report EC50 for C544 (antibody, V domains shown) VH: QVQLVQSGAEVKKPGASVKVSCKASGYTFSSHDINWVRQATGQGLEWVGWMNPNSGNTGSAQSFQGRVTLTRNASISTAYLELSSLRSEDTAVYFCARGFSLTWYFDLWGRGTLVTVSS VL: SYELTQPPSVSAAPGKTARITCGGNNIGGKNVHWYQQKPGQAPVLVVFDDSDRPSGIPERFSGSNSGNTATLTISRVEAGDEADYYCQLWDSTSDHPDVVFGGGTQLTVL please.
A: 2.34

// provenance: patent US20220195015A1
